Tested on: HCT116 WT cells
Assay: HCT116 WT cell proliferation / viability (CellTiter-Glo, 6 days)
Type: cell-based
Conditions: Homo sapiens, HCT-116, 144 h, HCT116 WT cells, 6 days, CellTiter-Glo; read-out: HCT-116 WT IC50
MEASUREMENT_KIND: log10(IC50) (log10 of the value in µM)
Please keep in mind that the values are log10 of IC50 expressed in µM.

COc1cc(C(F)(F)F)cnc1[C@@H](C)N(C)C(=O)c1cc2c(cc1F)nc(N)c1cnn(C)c12 (single isomer, unassigned) [Example 867] yielded log10(IC50) of 0.89

CC(C)N(C(=O)c1ccc2nc(N)c3c(c2c1)COC3)[C@H](C)c1ccc(C(F)(F)F)cn1 (single isomer, unassigned) [Example 832] yielded log10(IC50) of 1.10

CC(c1ncccn1)N(Cc1ccc(C#N)cn1)C(=O)c1ccc2nc(N)c3c(c2c1)COC3 (racemic) [Example 616] yielded log10(IC50) of -0.38

CCN(Cc1ccc(C2CC2)cn1)C(=O)c1ccc2nc(N)c3c(c2c1)COC3 [Example 539] yielded log10(IC50) of 0.32

Cn1ncc2c(N)nc3cc(F)c(C(=O)N(Cc4ncc(C(F)(F)F)cc4F)C4CC4)cc3c21 [Example 809] yielded log10(IC50) of 0.25

CCN(C(=O)c1cnc2nc(N)c3c(c2c1)COC3)C(C)c1ccc(C(F)(F)F)cn1 (racemic) [Example 705] yielded log10(IC50) of 1.45

C[C@H](c1ccc(C(F)(F)F)cn1)N(C(=O)c1ccc2nc(N)c3c(c2c1)CO[C@@H]3C)C1CC1 [Example 746] yielded log10(IC50) of 0.54

----------
Test system: HCT116 WT cells
Assay: HCT116 WT cell proliferation / viability (CellTiter-Glo, 6 days)
Type: cell-based
Conditions: Homo sapiens, HCT-116, 144 h, HCT116 WT cells, 6 days, CellTiter-Glo; read-out: HCT-116 WT IC50
MEASUREMENT_KIND: pIC50
Please express pIC50 as -log10 of the molar concentration.

CCN(Cc1ccc(OC(F)F)nn1)C(=O)c1ccc2nc(N)c3c(c2c1)COC3 [Example 723] yielded pIC50 of 5.22

C[C@H](c1ncccn1)N(Cc1cc2c(cn1)OCCC2)C(=O)c1cc2c3c(c(N)nc2cn1)COC3 [Example 686] yielded pIC50 of 5.06

CC(C)N(C(=O)c1cc2c3c(c(N)nc2cn1)COC3)[C@H](C)c1ccc(C(F)(F)F)cn1 (single isomer, unassigned) [Example 848] yielded pIC50 of 4.94

CC(C)CN(Cc1ccc(Br)nn1)C(=O)c1ccc2nc(N)c3c(c2c1)COC3 [Example 665] yielded pIC50 of 5.90

CCN(Cc1ccc(Br)nn1)C(=O)c1ccc2nc(N)c3c(c2c1)COC3 [Example 708] yielded pIC50 of 5.09

CO[C@H]1CCOC[C@@H]1N(Cc1ccc(C(F)(F)F)cn1)C(=O)c1ccc2nc(N)c3c(c2c1)COC3 (single isomer, unassigned) [Example 587] yielded pIC50 of 5.77

CC(C)N(Cc1cnc(C(F)(F)F)cn1)C(=O)c1cc2c3c(c(N)nc2cc1F)COC3 [Example 496] yielded pIC50 of 5.65

CN(Cc1ccc(C(F)(F)F)cn1)C(=O)c1ccc2nc(N)c3c(c2c1)COC3(C)C [Example 932] yielded pIC50 of 5.77

C[C@H](c1ccc(F)cn1)N(C)C(=O)c1cc2c(cc1Cl)nc(N)c1cnn(C)c12 [Example 593] yielded pIC50 of 6.04

C[C@H](c1ncn(C)n1)N(Cc1ccc(C(F)F)cn1)C(=O)c1ccc2nc(N)c3c(c2c1)CO[C@@H]3C [Example 466] yielded pIC50 of 6.66

CCN(Cc1ccc(C2CC2)cn1)C(=O)c1ccc2nc(N)c3c(c2c1)CO[C@@H]3C [Example 542] yielded pIC50 of 5.81

COC[C@@H](C)N(Cc1ccc(Br)nn1)C(=O)c1ccc2nc(N)c3c(c2c1)CO[C@@H]3C [Example 468] yielded pIC50 of 6.68

CN(Cc1ccc(C(F)(F)F)cn1)C(=O)c1cc2c3c(c(N)nc2cc1Cl)COC3 [Example 470] yielded pIC50 of 5.52

C[C@H](c1ccc(-c2ccc(S(F)(F)(F)(F)F)cc2)cc1)N(C)C(=O)c1ccc2nc(N)c3cnn(C)c3c2c1 [Example 533] yielded pIC50 of 5.50

CC(C)N(Cc1ccc(C(F)(F)F)cn1)C(=O)c1cc2c(cn1)nc(N)c1ncncc12 [Example 760] yielded pIC50 of 5.21

----------
Test system: HCT116 WT cells
Assay: HCT116 WT cell proliferation / viability (CellTiter-Glo, 6 days)
Assay type: cell-based
Conditions: Homo sapiens, HCT-116, 144 h, HCT116 WT cells, 6 days, CellTiter-Glo; read-out: HCT-116 WT IC50
MEASUREMENT_KIND: IC50

Response field IC50 (HCT116 WT cells) for item `Nc1nc2cnc(C(=O)N(Cc3ccc(C(F)(F)F)cn3)C3CC3)cc2c2c1COC2` : 6500 nM

Response field IC50 (HCT116 WT cells) for item CCN(C(=O)c1ccc2nc(N)c3c(c2c1)CO[C@@H]3C)[C@@H](C)c1ccc(C#N)cn1 (single isomer, unassigned) : > 50000 nM

Response field IC50 (HCT116 WT cells) for item `Cn1ncc2c(N)nc3cc(F)c(C(=O)N(Cc4ccc(C(F)(F)F)cn4)CC(F)(F)F)cc3c21` : 245 nM

Response field IC50 (HCT116 WT cells) for item `CCOc1ccc(CN(C(=O)c2ccc3nc(N)c4c(c3c2)CO[C@@H]4C)[C@H](C)COC)nn1` : 286 nM

Response field IC50 (HCT116 WT cells) for item `Cc1ccc(CN(C)C(=O)c2cc3c(cc2F)nc(N)c2cnn(C)c23)nc1` : 7500 nM

Response field IC50 (HCT116 WT cells) for item `Nc1nc2cc(Cl)c(C(=O)N(Cc3ccc(C(F)(F)F)nn3)C3CCC3)cc2c2c1COC2` : 662 nM

Response field IC50 (HCT116 WT cells) for item C[C@H](c1ccc(C(F)(F)F)cn1)N(C)C(=O)c1cc2c(cc1F)nc(N)c1cnn(C)c12 (single isomer, unassigned) : 209 nM

Response field IC50 (HCT116 WT cells) for item CC1OCc2c1c(N)nc1ccc(C(=O)N(Cc3ccc(C(F)(F)F)cn3)Cc3ccnc4[nH]ccc34)cc21 (centres unmarked) : 200 nM

Response field IC50 (HCT116 WT cells) for item CC1OCc2c1c(N)nc1ccc(C(=O)N(Cc3ccc(C(F)(F)F)cn3)Cc3ncccc3F)cc21 (centres unmarked) : 156 nM

Response field IC50 (HCT116 WT cells) for item C[C@@H](c1ccc(C(F)(F)F)cn1)N(C(=O)c1cc2c3c(c(N)nc2cn1)COC3)c1cnn(C)c1 (single isomer, unassigned) : 27100 nM

Response field IC50 (HCT116 WT cells) for item `CCN(C(=O)c1ccc2nc(N)c3c(c2c1)COC3)[C@H](C)c1ccc(C(F)(F)F)cc1F` : 2500 nM

Response field IC50 (HCT116 WT cells) for item CCN(C(=O)c1ccc2nc(N)c3c(c2c1)COC3)[C@@H](C)c1ccc(C#N)cc1 (single isomer, unassigned) : 38700 nM

Response field IC50 (HCT116 WT cells) for item `CC(C)N(Cc1cnc(C(F)(F)F)cn1)C(=O)c1ccc2nc(N)c3c(c2c1)CO[C@@H]3C` : 23900 nM

Response field IC50 (HCT116 WT cells) for item `CCN(C(=O)c1cc2c3c(c(N)nc2cc1F)[C@@H](C)OC3)[C@H](C)c1ccc(C(F)(F)F)nn1` : 609 nM

Response field IC50 (HCT116 WT cells) for item `C[C@H](c1ncccn1)N(Cc1ccc(Cl)cn1)C(=O)c1ccc2nc(N)c3c(c2c1)COC3` : 138 nM

Response field IC50 (HCT116 WT cells) for item `C[C@H](c1ncccn1)N(Cc1ccc(OCC(F)(F)F)nn1)C(=O)c1ccc2nc(N)c3c(c2c1)COC3` : 543 nM

Response field IC50 (HCT116 WT cells) for item `C[C@H](c1ccc(C(F)(F)F)cn1)N(C(=O)c1ccc2nc(N)c3c(c2c1)COC3)C1CC1` : 4890 nM

Response field IC50 (HCT116 WT cells) for item `CCN(Cc1ccc(C2CC2)cn1)C(=O)c1cc2c(cn1)nc(N)c1cnn(C)c12` : 548 nM

Response field IC50 (HCT116 WT cells) for item `CCN(Cc1ccc(C2CC2)cn1)C(=O)c1cc2c(cc1F)nc(N)c1cnn(C)c12` : 140 nM

Response field IC50 (HCT116 WT cells) for item `C[C@H](c1ncccn1)N(Cc1ccc(C#N)cn1)C(=O)c1ccc2nc(N)c3c(c2c1)CCC3` : 271 nM

Response field IC50 (HCT116 WT cells) for item `Cn1cc(N(Cc2ccc(C(F)(F)F)cn2)C(=O)c2cc3c4c(c(N)nc3cc2F)COC4)cn1` : 124 nM

Response field IC50 (HCT116 WT cells) for item `C[C@@H]1OCc2c1c(N)nc1cnc(C(=O)N(C)Cc3ccc(C4CC4)cn3)cc21` : > 50000 nM

Response field IC50 (HCT116 WT cells) for item `Cn1cc(N(Cc2ccc(C(F)(F)F)cn2)C(=O)c2cnc3nc(N)c4c(c3c2)COC4)cn1` : > 10000 nM

Response field IC50 (HCT116 WT cells) for item CC(C)N(C(=O)c1ccc2nc(N)c3c(c2c1)COC3)[C@@H](C)c1ccc(C(F)(F)F)cn1 (single isomer, unassigned) : 31700 nM

Response field IC50 (HCT116 WT cells) for item `C[C@H](c1ncccc1F)N(Cc1ccc(Br)nn1)C(=O)c1ccc2nc(N)c3c(c2c1)CCC3` : 189 nM

Response field IC50 (HCT116 WT cells) for item CCN(C(=O)c1cc2c(cc1F)nc(N)c1cnn(C)c12)[C@@H](C)c1ccc(F)cn1 (single isomer, unassigned) : 30400 nM

Response field IC50 (HCT116 WT cells) for item `CCN(Cc1cnc(C(F)(F)F)cn1)C(=O)c1cc2c3c(c(N)nc2cc1Cl)COC3` : 12700 nM

Response field IC50 (HCT116 WT cells) for item `Nc1nc2cc(Cl)c(C(=O)N(Cc3ccc(C(F)(F)F)nn3)C3CC3)cc2c2c1COC2` : 3480 nM

Response field IC50 (HCT116 WT cells) for item `C[C@H](c1ncccn1)N(Cc1cc2c(cn1)OCCC2)C(=O)c1ccc2nc(N)c3c(c2c1)COC3` : 550 nM
